system: 885724-159-R-J1-PDC complex spheroid viability; assay: Anticancer human tumor 885724-159-R-J1-PDC patient-derived pancreatic adenocarcinoma cell line growth inhibition [POLQ]; settings: second compound 0.316 µM; first compound 0.0316 µM; hits give low values;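 further: spheroids exposed to compounds for 7 days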
Exercise: state measured viability, T/C for each of the molecules provided.
Give bare numbers, in %.

# map each molecule to its viability, T/C
1. COc1cccc(OCCCN)c1-c1cc(Nc2cnc(C#N)cn2)n[nH]1 + Nc1ccc(C#CCN(C(=O)Cc2ncc(C(F)(F)F)cc2C(F)(F)F)c2ccc(F)cc2)nn1
2. CC(C)n1c(=O)n(C)c2cnc3cc(F)c(-c4ccc(OCCCN5CCCCC5)nc4)cc3c21 + COC1C(OC(N)=O)C(O)C(Oc2ccc3c(O)c(NC(=O)c4ccc(O)c(CC=C(C)C)c4)c(=O)oc3c2C)OC1(C)C
3. COc1cc(C2c3cc4c(cc3C(OC3OC5COC(C)OC5C(O)C3O)C3COC(=O)C23)OCO4)cc(OC)c1O (stereo not given) + Cc1cccc(N(C)C(=O)C2C(O)CCN2c2nc(C)cc(C(F)(F)F)c2C#N)c1
4. CCCS(=O)(=O)Nc1ccc(F)c(C(=O)c2c[nH]c3ncc(-c4ccc(Cl)cc4)cc23)c1F + COC1C(OC(N)=O)C(O)C(Oc2ccc3c(O)c(NC(=O)c4ccc(O)c(CC=C(C)C)c4)c(=O)oc3c2C)OC1(C)C
5. O=C(Nc1ccc(O)c(NS(=O)(=O)c2ccc(F)cc2)c1)c1ccc(-c2ccccc2)cc1 + Nc1ccc(C#CCN(C(=O)Cc2ncc(C(F)(F)F)cc2C(F)(F)F)c2ccc(F)cc2)nn1

[47.3, 99.4, 95.4, 104, 103]

# map each molecule to its viability, T/C
1. O=C(c1cc(Cc2n[nH]c(=O)c3ccccc23)ccc1F)N1CCN(C(=O)C2CC2)CC1 + COC1C(OC(N)=O)C(O)C(Oc2ccc3c(O)c(NC(=O)c4ccc(O)c(CC=C(C)C)c4)c(=O)oc3c2C)OC1(C)C
2. O=c1[nH]cc(F)c(=O)[nH]1 + Nc1ccc(C#CCN(C(=O)Cc2ncc(C(F)(F)F)cc2C(F)(F)F)c2ccc(F)cc2)nn1
3. COc1cc(C2c3cc4c(cc3C(OC3OC5COC(C)OC5C(O)C3O)C3COC(=O)C23)OCO4)cc(OC)c1O (stereo not given) + Nc1ccc(C#CCN(C(=O)Cc2ncc(C(F)(F)F)cc2C(F)(F)F)c2ccc(F)cc2)nn1
4. CC1COCCN1c1cc(-c2ccnn2C)c2ccnc(-c3ccn[nH]3)c2n1 (stereo not given) + COC1C(OC(N)=O)C(O)C(Oc2ccc3c(O)c(NC(=O)c4ccc(O)c(CC=C(C)C)c4)c(=O)oc3c2C)OC1(C)C
5. CC1COCCN1c1cc(C2(S(C)(=N)=O)CC2)nc(-c2ccnc3[nH]ccc23)n1 (stereo not given) + Nc1ccc(C#CCN(C(=O)Cc2ncc(C(F)(F)F)cc2C(F)(F)F)c2ccc(F)cc2)nn1

1. 94.8
2. 100
3. 103
4. 81.1
5. 95.3
